assayed_system: human recombinant HDAC6 (Homo sapiens)
Construct: purchased Calbiochem 382180
Sequence (Q9UBN7 1-1215): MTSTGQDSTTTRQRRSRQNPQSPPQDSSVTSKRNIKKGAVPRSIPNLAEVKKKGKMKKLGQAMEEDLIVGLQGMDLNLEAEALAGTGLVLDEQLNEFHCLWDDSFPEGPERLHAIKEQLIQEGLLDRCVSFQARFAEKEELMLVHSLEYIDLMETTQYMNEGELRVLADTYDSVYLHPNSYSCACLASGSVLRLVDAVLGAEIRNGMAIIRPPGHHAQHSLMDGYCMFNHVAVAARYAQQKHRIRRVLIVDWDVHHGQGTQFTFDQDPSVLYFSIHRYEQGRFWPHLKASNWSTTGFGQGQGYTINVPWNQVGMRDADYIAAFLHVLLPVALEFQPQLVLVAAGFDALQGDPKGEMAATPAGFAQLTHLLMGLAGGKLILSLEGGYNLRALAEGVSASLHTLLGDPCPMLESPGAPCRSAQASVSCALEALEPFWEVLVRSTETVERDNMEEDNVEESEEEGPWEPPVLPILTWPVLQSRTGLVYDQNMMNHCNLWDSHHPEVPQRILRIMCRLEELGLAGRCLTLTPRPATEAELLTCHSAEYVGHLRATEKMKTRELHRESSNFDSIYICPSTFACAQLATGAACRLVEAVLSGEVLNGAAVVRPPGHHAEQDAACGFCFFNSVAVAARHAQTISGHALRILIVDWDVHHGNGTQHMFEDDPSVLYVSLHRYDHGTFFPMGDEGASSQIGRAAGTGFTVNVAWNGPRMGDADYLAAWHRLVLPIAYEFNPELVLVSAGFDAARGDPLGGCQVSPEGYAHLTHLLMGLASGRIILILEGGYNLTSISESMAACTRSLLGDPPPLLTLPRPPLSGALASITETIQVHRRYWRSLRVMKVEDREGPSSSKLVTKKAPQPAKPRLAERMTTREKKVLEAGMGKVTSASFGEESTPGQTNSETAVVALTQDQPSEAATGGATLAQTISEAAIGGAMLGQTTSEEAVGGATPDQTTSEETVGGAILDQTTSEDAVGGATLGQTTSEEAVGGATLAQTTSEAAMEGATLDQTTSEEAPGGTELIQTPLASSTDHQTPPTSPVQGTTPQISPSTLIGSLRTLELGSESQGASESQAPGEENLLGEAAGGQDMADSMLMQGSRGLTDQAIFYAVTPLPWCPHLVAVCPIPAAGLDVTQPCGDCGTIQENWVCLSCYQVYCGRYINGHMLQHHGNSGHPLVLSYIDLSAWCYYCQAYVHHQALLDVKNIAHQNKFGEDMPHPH
assay_protocol: HDAC6 enzyme activity inhibition assay (HDAC Fluorimetric Drug Discovery Kit)
Format: biochemical
condition_notes: HDAC6 over HDAC1
readout_label: HDAC6 selectivity (fold)

Below, 5 molecules whose answers are already recorded.
CN(C)[C@H]1CCN(C(=O)N(Cc2ccc(-c3nnc(C(F)F)o3)cc2F)c2ccc(F)c(Cl)c2)C1 : 833
O=C(N1CCC(F)(F)C1)N(Cc1ccc(-c2nnc(C(F)F)o2)cc1F)c1ccc(F)c(Cl)c1 : 485
O=C(N1CCOCC1)N(Cc1ccc(-c2nnc(C(F)(F)F)o2)cc1)c1cccc(C(F)(F)F)c1 : 28
CC(C)(C)OC(=O)N1CC2(CCN(C(=O)N(Cc3ccc(-c4nnc(C(F)(F)F)o4)cc3)c3ccccc3)CC2)C1 : 6
O=C(N1CCS(=O)(=O)CC1)N(Cc1ccc(-c2nnc(C(F)F)o2)cc1F)c1ccc(OC2CCN(Cc3ccccc3)CC2)cc1 : 47

a: O=C(N1CCOCC1)N(Cc1ccc(-c2nnc(C(F)F)o2)cc1F)c1ccc(F)cc1F
b: O=C(N1CCOCC1)N(Cc1c(F)cc(-c2nnc(C(F)F)o2)cc1F)c1ccccc1
Enquiry: Pick one, a or b : lowest reported HDAC6 selectivity (fold). Your answer should be the label attached to the chosen record.
Return: b
(b: 208 fold, a: 966 fold)

1: CC(C)(F)CN1CCN(Cc2ccc(N(Cc3ccc(-c4nnc(C(F)F)o4)cc3F)C(=O)N3CCS(=O)(=O)CC3)cc2)CC1
2: COc1ccc(N(Cc2ccc(-c3nnc(C(F)F)o3)cc2)C(=O)N2CCS(=O)(=O)CC2)cc1
Enquiry: Which has the higher HDAC6 selectivity (fold), 1 or 2 ? Your answer should be the label attached to the chosen record.
Return: 2

A: O=C(C1CC1)N1CCN(CCNC(=O)N(Cc2ccc(-c3nnc(C(F)F)o3)cc2F)c2ccccc2)CC1
B: O=C(N1CCS(=O)(=O)CC1)N(Cc1ccc(-c2nnc(C(F)F)o2)cn1)c1ccc(Cl)cc1
Enquiry: Which has the higher HDAC6 selectivity (fold), A or B ? Your answer should be the label attached to the chosen record.
Return: B

###

assayed_system: human recombinant HDAC6 (Homo sapiens)
Construct: purchased Calbiochem 382180
assay_protocol: HDAC6 enzyme activity inhibition assay (HDAC Fluorimetric Drug Discovery Kit)
Type: biochemical
condition_notes: HDAC6 over HDAC1
Procedure: In order to examine the HDAC6 selectivity of the compounds of formula I of the present invention by HDAC1 and HDAC6 enzymatic activity inhibition assays, an experiment was performed using a conventional substance as a control. HDAC enzyme activity was measured using a HDAC Fluorimetric Drug Discovery Kit (BML-AK511, 516, Enzo Life Science). […] Based on the resulting values, each IC5, value was calculated using GraphPad Prism4.0 program.
readout_label: HDAC6 selectivity (fold)

Below, 3 compounds whose answers are already recorded.
O=C(N1CCS(=O)(=O)CC1)N(Cc1ccccc1)Cc1ccc(-c2nnc(C(F)(F)F)o2)cc1 [Compound 21374] : 10
O=C(N1CC2(COC2)C1)N(Cc1ccc(-c2nnc(C(F)F)o2)cc1F)c1ccccc1 [Compound 21522] : 455
CCn1ncc2ccc(N(Cc3ccc(-c4nnc(C(F)F)o4)cc3F)C(=O)N3CCS(=O)(=O)CC3)cc21 [Compound 21811] : 144

1: CCN1CCN(C(=O)N(Cc2ccc(-c3nnc(C(F)(F)F)o3)cc2F)c2ccc(Cl)cc2)CC1 [Compound 21863]
2: O=C(N1CCS(=O)(=O)CC1)N(Cc1ccc(-c2nnc(C(F)F)o2)cc1F)c1ccc(OC(F)(F)F)cc1 [Compound 21514]
3: O=C(N1CCOCC1)N(Cc1ccc(-c2nnc(C(F)(F)F)o2)cc1F)c1ccccc1 [Compound 21318]
4: CC(C)(O)CN1CCN(C(=O)N(Cc2ccc(-c3nnc(C(F)(F)F)o3)cc2)c2ccccc2)CC1 [Compound 21396]
Enquiry: Order the records so the highest HDAC6 selectivity (fold) appears first and the lowest last. Provide the ranking by listing each label in its place in the requested order.
Return: 2, 3, 1, 4
(2: 286 fold, 3: 145 fold, 1: 65 fold, 4: 34 fold)

###

assayed_system: human recombinant HDAC6 (Homo sapiens, UniProt Q9UBN7)
Construct: purchased Calbiochem 382180
assay_protocol: HDAC6 enzyme activity inhibition assay (HDAC Fluorimetric Drug Discovery Kit)
Format: biochemical
condition_notes: human recombinant HDAC6, same protocol as HDAC1; read-out: HDAC6
readout_label: IC50 (nM)

Below, 2 molecules whose answers are already recorded.
O=C(N1CCS(=O)(=O)CC1)N(Cc1ccc(-c2nnc(C(F)(F)F)o2)cc1F)c1cccc(OC(F)(F)F)c1 : 214
O=C(N1CCS(=O)(=O)CC1)N(Cc1ccc(-c2nnc(C(F)(F)F)o2)cn1)c1ccccc1 : 76

P: CCn1ncc2ccc(N(Cc3ccc(-c4nnc(C(F)F)o4)cc3F)C(=O)N3CCS(=O)(=O)CC3)cc21
Q: COc1ccc(N(Cc2ccc(-c3nnc(C(F)(F)F)o3)cn2)C(=O)N2CCS(=O)(=O)CC2)cc1
Enquiry: Pick one, P or Q : lowest reported IC50. Your answer should be the label attached to the chosen record.
Return: P
(P: 70 nM, Q: 106 nM)

###

assayed_system: human recombinant HDAC6 (Homo sapiens)
Construct: purchased Calbiochem 382180
assay_protocol: HDAC6 enzyme activity inhibition assay (HDAC Fluorimetric Drug Discovery Kit)
Assay type: biochemical
condition_notes: human recombinant HDAC6, same protocol as HDAC1; read-out: HDAC6
pIC50: −log10 of the molar value.
readout_label: pIC50

Below, 7 molecules whose answers are already recorded.
CCN1CCN(C(=O)N(Cc2ccc(-c3nnc(C(F)F)o3)cn2)c2ccccc2)CC1 [Compound 21624] : 7.54
CN1CC2(CCN(C(=O)N(Cc3ccc(-c4nnc(C(F)(F)F)o4)cc3)c3ccccc3)CC2)C1 [Compound 21420] : 7.15
CCN1CCN(CCNC(=O)N(Cc2ccc(-c3nnc(C(F)F)o3)cc2F)c2ccccc2)CC1 [Compound 21994] : 6.91
O=C(NCCN1CCN(CCO)CC1)N(Cc1ccc(-c2nnc(C(F)F)o2)cc1F)c1ccccc1 [Compound 21996] : 7.04
CCN1CCN(C(=O)N(Cc2ccc(-c3nnc(C(F)(F)F)o3)cc2F)c2ccc(Cl)cc2)CC1 [Compound 21863] : 6.40
O=C(N1CCN(C(=O)C(F)(F)F)CC1)N(Cc1ccc(-c2nnc(C(F)(F)F)o2)cc1)c1ccccc1 [Compound 21367] : 6.63
CCCN(C)C(=O)N(Cc1ccc(-c2nnc(C(F)(F)F)o2)cc1)c1ccccc1 [Compound 21402] : 6.65

a: CN1CCN(C(=O)N(Cc2ccc(-c3nnc(C(F)F)o3)cc2F)c2cccc(-c3ccccc3)c2)CC1 [Compound 21533]
b: CCN1CCN(C(=O)N(Cc2ccc(-c3nnc(C(F)(F)F)o3)cn2)c2cccc(F)c2)CC1 [Compound 21867]
Enquiry: Pick one, a or b : lowest reported pIC50. Your answer should be the label attached to the chosen record.
Return: a
